Source of measurements: paper PMC10850913

EXPERIMENT_DESCRIPTION: Pharmacokinetics after intravenous administration
Format: in vivo, male Albino Wistar rats
RUN_CONDITIONS: male, Albino Wistar, rat, plasma, iv; rats, 15 mg/kg intravenously
ASSAY_METRIC: MRT (h)
Answer with a number only, understood to be in h.

[ask] MRT lookup needed for CNC(=O)c1ccc(N2C(=S)N(c3ccc(C#N)c(C(F)(F)F)c3)C(=O)C2(C)C)cc1F [ENZ, Enzalutamide] , thanks.
[reply] 5.34

====

EXPERIMENT_DESCRIPTION: Tissue distribution
Format: in vivo
RUN_CONDITIONS: male, albino Wistar, rat, rectum, intravenous, 15 mg/kg; rats, 8 h after administration; read-out: Concentration in Rectum
ASSAY_METRIC: concentration at 8 h (ng/mL)
Report as a plain number; the unit ng/mL is understood.

[ask] Which measured concentration at 8 h value corresponds to CNC(=O)c1ccc(N2C(=S)N(c3ccc(C#N)c(C(F)(F)F)c3)C(=O)C2(C)C)cc1F [ENZ, Enzalutamide] ?
[reply] 3.07
